Every entry's value here was drawn from patent US10981926B2.

# target: F876L mutant Androgen Receptor (AR-F876L) (Homo sapiens (Human), UniProt P10275, F877L)
# Sequence (P10275 whole entry F877L): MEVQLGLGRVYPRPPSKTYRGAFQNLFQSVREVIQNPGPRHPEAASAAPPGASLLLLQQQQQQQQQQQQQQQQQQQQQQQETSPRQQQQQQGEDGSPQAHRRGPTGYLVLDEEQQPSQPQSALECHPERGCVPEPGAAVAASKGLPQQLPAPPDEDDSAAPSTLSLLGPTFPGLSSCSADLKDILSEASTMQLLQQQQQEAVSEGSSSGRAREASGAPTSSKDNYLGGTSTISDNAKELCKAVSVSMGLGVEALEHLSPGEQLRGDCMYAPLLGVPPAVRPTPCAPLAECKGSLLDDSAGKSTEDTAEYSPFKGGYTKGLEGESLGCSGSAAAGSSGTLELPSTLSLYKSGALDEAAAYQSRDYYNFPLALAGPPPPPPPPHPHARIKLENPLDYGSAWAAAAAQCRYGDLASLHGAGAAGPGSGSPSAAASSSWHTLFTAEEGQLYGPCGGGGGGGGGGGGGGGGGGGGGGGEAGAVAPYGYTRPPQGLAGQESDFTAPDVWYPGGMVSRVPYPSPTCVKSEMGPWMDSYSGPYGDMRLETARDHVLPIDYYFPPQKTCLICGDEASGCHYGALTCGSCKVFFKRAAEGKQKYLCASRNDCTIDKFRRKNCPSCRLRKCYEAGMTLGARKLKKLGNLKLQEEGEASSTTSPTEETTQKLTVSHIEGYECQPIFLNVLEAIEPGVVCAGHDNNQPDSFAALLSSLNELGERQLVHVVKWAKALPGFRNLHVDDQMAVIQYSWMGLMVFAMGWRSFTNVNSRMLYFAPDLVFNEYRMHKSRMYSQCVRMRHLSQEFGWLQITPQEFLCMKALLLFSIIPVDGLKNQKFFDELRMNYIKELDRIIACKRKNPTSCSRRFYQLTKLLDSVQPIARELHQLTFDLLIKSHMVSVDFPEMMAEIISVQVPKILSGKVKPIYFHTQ
# test-method-notes: LNCaP-AR-F876L AG reporter assay (agonist mode)
# Format: cell-based
# cond: maximum % stimulation (agonist response) over the tested concentration range; read-out: LNCaP-AR-F876L AG MAX % Stim
reported-metric: Emax (%)

>>> endpoint_result("N#Cc1ncc(N2C(=O)C3(CCC3)N(c3ccc4c(cnn4CCO)c3)C2=S)cc1C(F)(F)F [Cpd 159]")
0.2
>>> endpoint_result("COCCN1CCC(Oc2ccc(N3C(=S)N(c4cnc(C#N)c(Cl)c4)C(=O)C34CCC4)cn2)CC1 [Cpd 70]")
3.6
>>> endpoint_result("N#Cc1ncc(N2C(=O)C3(CCC3)N(c3ccc(C4CC5CCC(C4)N5)cc3)C2=S)cc1C(F)(F)F (stereo not drawn) [Cpd 123]")
0.2
>>> endpoint_result("C#CCN1CCC(Oc2ccc(N3C(=S)N(c4cnc(C#N)c(C(F)(F)F)c4)C(=O)C34CCC4)cn2)CC1 [Cpd 104]")
0.7
>>> endpoint_result("N#Cc1ncc(N2C(=O)C3(CCC3)N(c3ccc(OCCN4CCC5(CCOC5)CC4)cc3)C2=S)cc1C(F)(F)F [Cpd 82]")
0.8
>>> endpoint_result("CC(=O)N1CCC(n2ncc3cc(N4C(=S)N(c5cnc(C#N)c(C(F)(F)F)c5)C(=O)C45CCC5)ccc32)CC1 [Cpd 131]")
0.3
>>> endpoint_result("N#Cc1ncc(N2C(=O)C3(CCC3)N(c3ccc(OC4C5CCC4CNC5)cc3)C2=S)cc1C(F)(F)F (stereo not drawn) [Cpd 138]")
0.1
>>> endpoint_result("Cc1cc(N2C(=O)C3(CCC3)N(c3ccc(OC4CCN(C)CC4)nc3)C2=S)cnc1C#N [Cpd 2]")
0.2
>>> endpoint_result("CC1(Oc2ccc(N3C(=S)N(c4cnc(C#N)c(C(F)(F)F)c4)C(=O)C34CCC4)cc2)CCNCC1 [Cpd 140]")
0
>>> endpoint_result("COc1cc(N2C(=O)C3(CCC3)N(c3ccc4c(cnn4CCO)c3)C2=S)cnc1C#N [Cpd 167]")
0

1: N#Cc1ncc(N2C(=O)C3(CCC3)N(c3ccc(OC4CCN(C5CC5)CC4)cc3)C2=S)cc1C(F)(F)F [Cpd 36]
2: CN1CCC[C@H](Oc2ccc(N3C(=S)N(c4cnc(C#N)c(C(F)(F)F)c4)C(=O)C34CCC4)cc2)C1 [Cpd 20]
Hey, between 1 and 2 which has a smaller measured Emax? API: response body contains the label of the selected item.
2
(2: -0.5%, 1: 1%)

###

# target: wild-type Androgen Receptor (AR-wt) (Homo sapiens (Human), UniProt P10275)
# Sequence (P10275 whole entry): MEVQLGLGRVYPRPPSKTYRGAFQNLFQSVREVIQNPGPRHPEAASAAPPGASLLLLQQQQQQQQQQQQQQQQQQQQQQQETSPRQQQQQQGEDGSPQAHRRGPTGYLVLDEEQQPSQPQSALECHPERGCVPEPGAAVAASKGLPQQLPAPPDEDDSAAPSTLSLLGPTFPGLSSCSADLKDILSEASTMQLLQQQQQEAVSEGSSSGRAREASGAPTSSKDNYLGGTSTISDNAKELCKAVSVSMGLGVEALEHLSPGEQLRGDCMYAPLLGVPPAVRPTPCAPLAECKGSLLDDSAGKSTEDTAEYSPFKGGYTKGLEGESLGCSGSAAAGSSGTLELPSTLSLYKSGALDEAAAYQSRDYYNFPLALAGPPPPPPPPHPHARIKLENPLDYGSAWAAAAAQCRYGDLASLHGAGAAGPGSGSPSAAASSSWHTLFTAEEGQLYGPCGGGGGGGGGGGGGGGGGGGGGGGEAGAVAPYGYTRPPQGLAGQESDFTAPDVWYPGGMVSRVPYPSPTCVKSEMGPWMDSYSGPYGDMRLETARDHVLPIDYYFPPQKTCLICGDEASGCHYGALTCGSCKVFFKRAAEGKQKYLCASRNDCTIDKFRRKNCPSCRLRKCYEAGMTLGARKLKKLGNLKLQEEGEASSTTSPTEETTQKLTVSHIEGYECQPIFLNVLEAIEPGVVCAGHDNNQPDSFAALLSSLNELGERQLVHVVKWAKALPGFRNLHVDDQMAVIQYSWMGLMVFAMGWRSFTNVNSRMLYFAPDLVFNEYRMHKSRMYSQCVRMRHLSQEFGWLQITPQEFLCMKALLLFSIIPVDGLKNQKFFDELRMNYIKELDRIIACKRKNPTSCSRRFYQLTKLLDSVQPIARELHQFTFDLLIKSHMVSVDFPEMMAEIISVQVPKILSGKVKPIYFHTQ
# test-method-notes: LNCaP-AR-wt ANT reporter assay (antagonist mode)
# Format: cell-based
# cond: antagonist mode; pIC50 = −Log10(IC50 in Molar); read-out: LNCaP-AR-wt ANT pIC50 (converted)
reported-metric: IC50 (nM)

These solved cases illustrate the format of a correct answer.
>>> endpoint_result("N#Cc1ncc(N2C(=O)C3(CCC3)N(c3ccc(SC4CCNCC4)cc3)C2=S)cc1C(F)(F)F [Cpd 240]")
457
>>> endpoint_result("CN1CC(COc2ccc(N3C(=S)N(c4cnc(C#N)c(C(F)(F)F)c4)C(=O)C34CCC4)cc2)C1 [Cpd 59]")
135
>>> endpoint_result("Cc1cc(N2C(=O)C3(CCC3)N(c3ccc(-c4cnn(C(N)=O)c4)cc3)C2=S)cnc1C#N [Cpd 7]")
288
>>> endpoint_result("N#Cc1ncc(N2C(=O)C3(CCC3)N(c3ccc(OC4CCS(=O)(=O)CC4)cc3)C2=S)cc1C(F)(F)F [Cpd 13]")
537
>>> endpoint_result("N#Cc1ncc(N2C(=O)C3(CCC3)N(c3ccc4c(cnn4C4CCNCC4)c3)C2=S)cc1Cl [Cpd 182]")
550
>>> endpoint_result("N#Cc1ncc(N2C(=O)C3(CCC3)N(c3ccc(OC4CC5CC4CN5)cc3)C2=S)cc1C(F)(F)F (stereo not shown) [Cpd 150]")
490
>>> endpoint_result("N#Cc1ncc(N2C(=O)C3(CCC3)N(c3ccc4c(ccn4CCO)c3)C2=S)cc1C(F)(F)F [Cpd 248]")
417
>>> endpoint_result("CC(=O)N1CCC(n2cc3ccc(N4C(=S)N(c5cnc(C#N)c(C(F)(F)F)c5)C(=O)C45CCC5)cc3n2)CC1 [Cpd 198]")
562

P: CN1CC[C@H](Oc2ccc(N3C(=S)N(c4cnc(C#N)c(C(F)(F)F)c4)C(=O)C34CCC4)cc2)[C@H](F)C1 (racemic) [Cpd 102]
Q: CN1CC2CC1CC2Oc1ccc(N2C(=S)N(c3cnc(C#N)c(C(F)(F)F)c3)C(=O)C23CCC3)cn1 (stereo not shown) [Cpd 177]
R: Cc1cc(N2C(=O)C3(CCC3)N(c3ccc(OC4CCN(C)CC4)nc3)C2=S)cnc1C#N [Cpd 2]
S: N#Cc1ncc(N2C(=O)C3(CCC3)N(c3ccc(O[C@H]4CCNC[C@H]4F)cc3)C2=S)cc1C(F)(F)F (racemic) [Cpd 96]
T: N#Cc1ncc(N2C(=O)C3(CCC3)N(c3ccc4c(cnn4CCO)c3)C2=S)cc1C(F)(F)F [Cpd 159]
Order the records, beginning with the lowest IC50 and ending with the highest. Submit the labels in the order that the ranking request calls for.
P, S, R, Q, T
